# targetSystem: NCAP (SARS-CoV-2, UniProt P0DTC9)
# protocolNotes: EMSA
pKd: −log10 of the molar value.
binders and their reported pKd

binder | pKd
GGCUGUGUGGCUGUCACUCGGCUGCAUGCUUAGUGCACUCACGCAG (structured_RNA) [SL4 hairpin] | 6.24
F127 (structured_RNA) RNA: GGAUUAAAGGUUUAUACCUUCCCAGGUAACAAACCAACCAACUUUCGAUCUCUUGUAGAUCUGUUCUCUAAACGAACUUUAAAAUCUGUGUGGCUGUCACUCGGCUGCAUGCUUAGUGCACUCACGCAG | 6.74
F294 (structured_RNA) RNA: GGAUUAAAGGUUUAUACCUUCCCAGGUAACAAACCAACCAACUUUCGAUCUCUUGUAGAUCUGUUCUCUAAACGAACUUUAAAAUCUGUGUGGCUGUCACUCGGCUGCAUGCUUAGUGCACUCACGCAGUAUAAUUAAUAACUAAUUACUGUCGUUGACAGGACACGAGUAACUCGUCUAUCUUCUGCAGGCUGCUUACGGUUUCGUCCGUGUUGCAGCCGAUCAUCAGCACAUCUAGGUUUCGUCCGGGUGUGACCGAAAGGUAAGAUGGAGAGCCUUGUCCCUGGUUUCAACGA | 7.59

Origin of values: paper doi:10.1101/2021.12.25.474155
